The reported measurements were obtained from patent US20030148958A1.

# Tested target: corticotropin releasing factor 1 receptor; further: reference of the scale not given here
# Test: cell-based or functional assay
Ends that are not written are not given here.
Value kind: CRF1R Emax (%)

IVLSLDVPIGLLQILLEQRRAAREQATTNARILARV-NH2 [SEQ ID NO 133]: 4
SQEPPISLDLPFELLREVLEMTKADQLAQQAHSNRKLLDIA-NH2 [SEQ ID NO 97]: 4.25
IVLSLDVPIGLLQILIEIEKQEKEKQQAANNARILARV-NH2 [SEQ ID NO 166]: 95
SQEPPISLDLPTQLLREVLEMTKADQLAQQAHSNRKLLDIA-NH2 [SEQ ID NO 105]: 5.2
IVLSLDVPIGLLQILLEQERAEAAREQATTNARILARV-NH2 [SEQ ID NO 113]: 4
ZGPPISIDLPIELLRKMIEIEKQEKEKQQAANNRLLLDTI (C-terminal amide) [SEQ ID NO 76]: 7
IVLSLDVPIGLLQILLEQARAAAREQATTNARILARV-NH2 [SEQ ID NO 141]: 7
IVLSLDVPIGLLQILLEQAAAAREQATTNARILARV-NH2 [SEQ ID NO 134]: 7
IVLSLDVPIGLLQILLEQARARAAREQATTQARILARV-NH2 [SEQ ID NO 9]: 10
SQEPPISLDLPIQLLREVLEMTKADQLAQQAHSNRKLLDIA-NH2 [SEQ ID NO 100]: 6.25
ZGPPISIDLPTLLLRKMIEIEKQEKEKQQAANNRLLLDTI (C-terminal amide) [SEQ ID NO 51]: 48
ZGPPISIDLPFQLLRKMIEIEKQEKEKQQATTNRLLLATV (C-terminal amide) [SEQ ID NO 17]: 98
ZGPPISIDLPWQLLRKMIEIEKQEKEKQQAANNRLLLDTI (C-terminal amide) [SEQ ID NO 210]: 90
ZGPPISIDLPEYLLRKMIEIEKQEKEKQQAANNRLLLDTI (C-terminal amide) [SEQ ID NO 48]: 21
SQEPPISLDLPLHLLREVLEMTKADQLAQQAHSNRKLLDIA-NH2 [SEQ ID NO 102]: 7.8
ZGPPISIDLPIILLRKMIEIEKQEKEKQQAANNRLLLDTI (C-terminal amide) [SEQ ID NO 36]: 33
SQEPPISLDLPLGLLREVLEMTKADQLAQQAHSNRKLLDIA-NH2 [SEQ ID NO 90]: 4
ZGPPISIDLPIDLLRKMIEIEKQEKEKQQAANNRLLLDTI (C-terminal amide) [SEQ ID NO 28]: 2
IVLSLDVPIGLLQILLEQEKEKKRKETNARILARV-NH2 [SEQ ID NO 132]: 8
DNPSLSIDLPFFLLRTLLELARTQSQRERAEQNAIIFASV-NH2 [SEQ ID NO 184]: 77.3
DNPSLSIDLPTYLLRTLLELARTQSQRERAEQNAIIFASV-NH2 [SEQ ID NO 173]: 6.05
DNPSLSIDLPFYLLRTLLELARTQSQRERAEQNAIIFASV-NH2 [SEQ ID NO 183]: 57.5
SEEPPISLDLTFHLLREVLEMARAEQLAQQAHTNARILARV-NH2 [SEQ ID NO 161]: 77
SQEPPISLDLPIGLLREVLEMTKADQLAQQAHSNRKLLDIA-NH2 [SEQ ID NO 93]: 5
